# key: entry, value: growth at 1 µM
System: HeLa
test_method_notes: Cytotoxicity against human HeLa cells assessed as cell growth at 10^-6 M after 48 hrs by SRB assay relative to control
Type: functional
condition_details: read-out: Activity
Structures can show the parent of a compound that is named as a salt.
Could you give me the number in %? Just the number is fine.

Examples with their reported growth at 1 µM follow.
compound	growth at 1 µM (%)
CCOc1ccc2sc(S(C)(=O)=O)nc2c1S(=O)(=O)NC(CC)CC	89.4
CCOc1ccc2sc(S(C)(=O)=O)nc2c1N	93

Q: Query: growth at 1 µM; subject: COc1cccc2c1C(=O)c1c(O)c3c(c(O)c1C2=O)C[C@@](O)(C(=O)CO)C[C@@H]3O[C@H]1C[C@H](N)[C@H](O)[C@H](C)O1 [DOXORUBICIN HYDROCHLORIDE]
Ans: -82.9
